- ASSAY PROTOCOL: Viability Counterscreen for Primary qHTS for Inhibitors of ATXN expression; further: nearly all actives have a fitted effect of over 40% in size
- EXPERIMENTAL PARAMETERS: S2 cells (HEK-293 line with an ATXN2-luciferase reporter) viability, CellTiter-Fluor protease fluorescence, 24 h; series mostly up to 56.7 µM
The whole screen tested about 400,000 compounds, of which about 1,900 (0.47%) were called active. Another 14% or so got no clear call; they are omitted. The call rests on the fitted dose curve; in most records, active means well fitted cell-killing curve with a large enough effect; inconclusive means small, poorly fitted or top-dose-only effect, or effect the other way; inactive means no such curve, though single readings can be large or run the other way. The sample holds actives, similar compounds and a random draw of the others, so the mix is not that of the screen.
Hi! Could you answer with just one of these? true = active, false = inactive

Qu. Can you look up the reported call for CC(=O)O[C@H]1CC[C@@]2(C)C(=CC[C@@H]3[C@@H]2CC[C@]2(C)C(c4cccnc4)=CC[C@@H]32)C1 for me?
Ans. false

Qu. Can you look up the reported call for COc1cc2[nH]c(C)c(CCN3CCN(c4ccccc4)CC3)c2cc1OC for me?
Ans. false

Qu. Can you look up the reported call for O=C(/C=C/Sc1ncn[nH]1)c1ccc(Cl)cc1 for me?
Ans. true

Qu. Can you look up the reported call for CCS(=O)(=O)c1ncc(N(Cc2ccc(F)cc2)Cc2ccco2)c(C(=O)Nc2cc(C)ccc2C)n1 for me?
Ans. false
